B1: DnaJ homolog subfamily C member 2, residues 451 to 503; numbered along this chain, Q99543 (parent)
chain: SKNWSEDDLQLLIKAVNLFPAGTNSRWEVIANYMNIHSSSGVKRTAKDVIGKA

- Variants of: B1
- assayRemarks: abundance fitness (aPCA) (normalised: wild type 0, dead -1); higher = more abundant; growth selection in yeast, the domain comes from the species named
- runConditions: Homo sapiens
Record criterion met whenever abundance fitness is at -0.4 or higher; record criterion not met when lower.

Previously resolved entries follow.
SKNWSEDDLQLLIKAVNLFPAGTNSRWEQIANYMNIHSSSGVKRTAKDVIGKA [V29Q] = criterion met
SKNWSEDDLQLLIKAVNLFPALTNSRWEVIANYMNIHSSSGVKRTAKDVIGKA [G22L] = criterion not met
SKNWSEDDLQYLIKAVNLFPAGTNSRWEVIANYMNIHSSSGVKRTAKDVIGKA [L11Y] = criterion not met
SKNWSEDDLQLLIKAVNLFPAGTNSRWEVIANYMNIHSSWGVKRTAKDVIGKA [S40W] = criterion not met
SQNWSEDDLQLLIKAVNLFPAGTNSRWEVIANYMNIHSSSGVKRTAKDVIGKA [K2Q] = criterion met

Request: Evaluate SKNWSEDDLQLLIKAVNLFPAGTNARWEVIANYMNIHSSSGVKRTAKDVIGKA [S25A] : abundance fitness at minimum -0.4?
Response: criterion met

Request: Reported abundance fitness reaches at least -0.4 for SKNWSEDDLQLLIKAVNLFPAGTNSRWEVIANYMNIHSSSGVKRIAKDVIGKA [T45I] ?
Response: criterion met

Request: Kindly determine if abundance fitness recorded for SKNWSEDDLQLKIKAVNLFPAGTNSRWEVIANYMNIHSSSGVKRTAKDVIGKA [L12K] is above or exactly -0.4.
Response: criterion not met

Request: Could you please find out whether SKNWSEDDLQLLIKAVNLFPAGTNSRWEVIANYMNIHHSSGVKRTAKDVIGKA [S38H] has abundance fitness that meets -0.4 or exceeds it?
Response: criterion not met

Request: Could you please find out whether SKNWSEDVLQLLIKAVNLFPAGTNSRWEVIANYMNIHSSSGVKRTAKDVIGKA [D8V] has abundance fitness that meets -0.4 or exceeds it?
Response: criterion not met

Request: In plain terms: is recorded abundance fitness at least -0.4 for SVNWSEDDLQLLIKAVNLFPAGTNSRWEVIANYMNIHSSSGVKRTAKDVIGKA [K2V] ?
Response: criterion met

Request: Threshold query (abundance fitness >= -0.4) on SKNWSEDDLQLLIKAVNLFPAETNSRWEVIANYMNIHSSSGVKRTAKDVIGKA [G22E]
Response: criterion met

Request: Is reported abundance fitness greater than or equal to -0.4 here: SKNWSEDDLQLLIKAVNLFPAGTNSRWEVIANYMNIHSSSGVARTAKDVIGKA [K43A]
Response: criterion met

Request: Assess whether reported abundance fitness for SKNWSMDDLQLLIKAVNLFPAGTNSRWEVIANYMNIHSSSGVKRTAKDVIGKA [E6M] sits at -0.4 or higher.
Response: criterion met

Request: # bool: abundance fitness of SKNWSEDDLQLLIKAVNLFPAGTNKRWEVIANYMNIHSSSGVKRTAKDVIGKA [S25K] >= -0.4
Response: criterion met
